targetEntity: Mitogen-activated protein kinase 10 (Homo sapiens, UniProt P53779)
Sequence (P53779 whole entry): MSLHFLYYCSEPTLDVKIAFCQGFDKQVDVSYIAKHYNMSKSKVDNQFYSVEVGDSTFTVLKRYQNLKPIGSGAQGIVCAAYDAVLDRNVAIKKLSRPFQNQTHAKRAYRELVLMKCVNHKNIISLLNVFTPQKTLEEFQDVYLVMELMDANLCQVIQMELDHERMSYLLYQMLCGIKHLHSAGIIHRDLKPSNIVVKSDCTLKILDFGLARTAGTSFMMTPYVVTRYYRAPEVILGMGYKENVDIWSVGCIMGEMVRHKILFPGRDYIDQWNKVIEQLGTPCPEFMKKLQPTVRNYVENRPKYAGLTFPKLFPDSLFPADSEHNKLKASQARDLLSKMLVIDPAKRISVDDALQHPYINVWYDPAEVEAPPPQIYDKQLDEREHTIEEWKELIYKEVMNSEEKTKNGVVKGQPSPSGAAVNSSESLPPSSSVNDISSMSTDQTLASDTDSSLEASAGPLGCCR
assayDetails: Inhibition of human JNK3 by millipore radiometric assay
readoutType: IC50 (nM)
Answers are plain numbers, in nM.

Req: Need IC50 of O=C(N[C@@H](c1ccccn1)C1CC1)c1ccc2[nH]nc(-c3ccc(N4[C@H]5CC[C@H]4CC(O)C5)cc3)c2c1 (stereo in doubt; 75) , thanks.
Resp: 68

----------
assayDetails: Half life in rat liver microsomes at 1 uM by LC-MS analysis
Assay type: ADME
testParameters: liver microsomes
Can you tell me half-life at 1 µM for the items I'm about to list?
Give bare numbers, in min.

compound	half-life at 1 µM (min)
CN1CCC(Oc2ccc(-c3n[nH]c4ccc(C(=O)NC(c5ccsc5)C5CCCC5)cc34)cc2)CC1 (racemic)	24
O=C(N[C@@H](c1ccccn1)C1CCCC1)c1ccc2[nH]nc(-c3ccc(N4[C@H]5COC[C@H]4CC(O)C5)cc3)c2c1 (stereo not given in full)	33
CC(C)C[C@@H](NC(=O)c1ccc2[nH]nc(-c3ccc(N4[C@H]5CC[C@H]4CC(O)C5)cc3)c2c1)c1ccccn1 (stereo not given in full)	25
CN1CCC(Oc2ccc(-c3n[nH]c4ccc(NC(=O)C(c5ccsc5)C5CCCC5)cc34)cc2)CC1 (racemic)	15
O=C(N[C@H](c1ccccc1)C1CC1)c1ccc2[nH]nc(-c3ccc(N4[C@H]5CC[C@H]4CC(O)C5)cc3)c2c1 (stereo not given in full)	35

Now consider a different compound.
Req: Need half-life at 1 µM of CC(C)C[C@H](NC(=O)c1ccc2[nH]nc(-c3ccc(N4[C@H]5CC[C@H]4CC(O)C5)cc3)c2c1)c1ccccn1 (stereo not given in full) , thanks.
Resp: 48

----------
targetEntity: Dual specificity protein kinase TTK (Homo sapiens, UniProt P33981)
Sequence (P33981 whole entry): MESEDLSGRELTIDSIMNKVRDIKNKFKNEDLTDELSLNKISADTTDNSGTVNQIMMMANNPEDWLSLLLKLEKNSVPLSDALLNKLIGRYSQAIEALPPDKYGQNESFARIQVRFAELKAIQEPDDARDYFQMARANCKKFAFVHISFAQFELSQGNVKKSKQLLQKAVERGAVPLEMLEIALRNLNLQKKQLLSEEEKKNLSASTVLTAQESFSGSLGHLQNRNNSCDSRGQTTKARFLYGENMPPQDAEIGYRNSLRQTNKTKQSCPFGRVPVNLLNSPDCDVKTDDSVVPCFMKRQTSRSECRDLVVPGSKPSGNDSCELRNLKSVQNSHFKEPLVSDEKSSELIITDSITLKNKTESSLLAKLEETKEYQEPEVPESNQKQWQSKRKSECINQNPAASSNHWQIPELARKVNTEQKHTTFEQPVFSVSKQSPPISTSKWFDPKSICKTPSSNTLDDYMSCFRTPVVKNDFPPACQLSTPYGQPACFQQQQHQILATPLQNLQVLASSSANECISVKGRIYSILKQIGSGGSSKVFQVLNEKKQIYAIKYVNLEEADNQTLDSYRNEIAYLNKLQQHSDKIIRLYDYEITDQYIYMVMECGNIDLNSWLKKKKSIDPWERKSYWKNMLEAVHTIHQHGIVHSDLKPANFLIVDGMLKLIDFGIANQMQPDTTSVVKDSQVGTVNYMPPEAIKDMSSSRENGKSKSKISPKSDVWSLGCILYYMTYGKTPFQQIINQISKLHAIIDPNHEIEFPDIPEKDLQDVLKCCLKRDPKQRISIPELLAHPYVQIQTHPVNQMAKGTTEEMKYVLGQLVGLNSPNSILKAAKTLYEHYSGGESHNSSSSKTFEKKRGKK
assayDetails: Inhibition of amino terminal GST-fused full length human TTK using His6-SUMO-TTK-N as substrate preincubated for 15 mins prior to ATP addition by indirect ELISA detection system
Hi! Just check whether IC50 is below 8 nM. Below gives True, equal or above gives False.

compound	class
CC(C)[C@H](NC(=O)c1ccc2[nH]nc(-c3ccc(N4[C@H]5CC[C@H]4CC(O)C5)cc3)c2c1)c1ccccc1Cl (some centres not stated)	True
CN1CCC(Oc2ccc(-c3n[nH]c4ccc(C(=O)NC(c5ccsc5)C5CCCC5)cc34)cc2)CC1 (racemic)	True

Req: # check: IC50 < 8 nM for CC(C)C[C@H](NC(=O)c1ccc2[nH]nc(-c3ccc(N4[C@H]5CCC[C@H]4CC(O)C5)cc3)c2c1)c1ccccn1 (some centres not stated)
Resp: False

Req: # check: IC50 < 8 nM for O=C(Nc1ccc2[nH]nc(-c3ccc(N4CCOCC4)cc3)c2c1)C(c1ccsc1)N1CCCC1 (racemic)
Resp: False

Req: # check: IC50 < 8 nM for CC(C)C[C@H](NC(=O)c1ccc2[nH]nc(-c3ccc(N4[C@H]5CC[C@H]4CC(O)C5)cc3)c2c1)c1ccccn1 (some centres not stated)
Resp: True

Req: # check: IC50 < 8 nM for CN1CCN(c2ccc(-c3n[nH]c4ccc(NC(=O)C(c5ccsc5)N5CCCC5)cc34)cc2S(C)(=O)=O)CC1 (racemic)
Resp: False

----------
targetEntity: Proto-oncogene tyrosine-protein kinase receptor Ret (Homo sapiens)
Sequence (P07949 whole entry): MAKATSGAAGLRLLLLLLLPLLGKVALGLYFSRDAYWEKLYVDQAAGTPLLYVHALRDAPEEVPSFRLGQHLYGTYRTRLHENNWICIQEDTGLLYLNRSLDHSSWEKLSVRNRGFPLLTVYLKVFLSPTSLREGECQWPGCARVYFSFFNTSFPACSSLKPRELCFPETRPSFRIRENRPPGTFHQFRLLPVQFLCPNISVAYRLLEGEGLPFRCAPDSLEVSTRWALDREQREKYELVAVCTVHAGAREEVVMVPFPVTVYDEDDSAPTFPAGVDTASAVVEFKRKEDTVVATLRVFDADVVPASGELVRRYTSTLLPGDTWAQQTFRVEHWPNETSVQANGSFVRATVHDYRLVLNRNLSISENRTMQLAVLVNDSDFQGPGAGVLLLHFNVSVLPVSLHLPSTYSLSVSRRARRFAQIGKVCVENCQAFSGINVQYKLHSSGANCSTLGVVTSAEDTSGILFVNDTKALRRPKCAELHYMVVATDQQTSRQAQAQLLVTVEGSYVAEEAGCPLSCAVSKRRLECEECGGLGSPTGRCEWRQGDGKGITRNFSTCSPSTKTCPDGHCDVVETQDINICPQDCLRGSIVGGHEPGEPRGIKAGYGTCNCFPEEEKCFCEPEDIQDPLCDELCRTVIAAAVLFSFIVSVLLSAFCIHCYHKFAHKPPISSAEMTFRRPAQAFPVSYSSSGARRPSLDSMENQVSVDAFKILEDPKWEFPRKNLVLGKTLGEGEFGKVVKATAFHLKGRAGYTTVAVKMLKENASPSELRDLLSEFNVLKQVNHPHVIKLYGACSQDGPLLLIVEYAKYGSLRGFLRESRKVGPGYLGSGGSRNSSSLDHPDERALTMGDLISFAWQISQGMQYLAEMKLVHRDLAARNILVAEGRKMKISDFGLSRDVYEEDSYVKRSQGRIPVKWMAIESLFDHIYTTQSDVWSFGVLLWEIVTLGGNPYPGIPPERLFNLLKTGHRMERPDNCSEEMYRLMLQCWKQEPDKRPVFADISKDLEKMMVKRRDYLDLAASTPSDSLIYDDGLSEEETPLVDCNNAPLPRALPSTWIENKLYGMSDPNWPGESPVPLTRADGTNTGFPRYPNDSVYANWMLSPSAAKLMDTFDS
readoutType: IC50
Answer with the number, then the unit.

Req: Need IC50 of O=C(N[C@@H](c1ccccn1)C1CC1)c1ccc2[nH]nc(-c3ccc(N4[C@H]5CC[C@H]4CC(O)C5)cc3)c2c1 (stereo in doubt; 75) , thanks.
Resp: 2800 nM

----------
assayDetails: Cytotoxicity against human OVCAR3 cells after 5 days by sulforhodamine B assay
Format: functional, OVCAR-3
testParameters: Homo sapiens, OVCAR-3, 120 h
readoutType: GI50
Answer with the number, then the unit.

molecule	GI50
O=C(N[C@@H](c1ccccn1)C1CCCC1)c1ccc2[nH]nc(-c3ccc(N4[C@H]5COC[C@H]4CC(O)C5)cc3)c2c1 (some centres undefined)	160 nM
CC(C)C[C@H](NC(=O)c1ccc2[nH]nc(-c3ccc(N4[C@H]5CC[C@H]4CC(O)C5)cc3)c2c1)c1ccccn1 (some centres undefined)	140 nM
O=C(NCC1(N2CCOCC2)CCCCC1)c1ccc2[nH]nc(-c3ccc(N4C5CCC4COC5)cc3)c2c1	17 nM

Req: Need GI50 of O=C(N[C@@H](c1ncccn1)C1CCCC1)c1ccc2[nH]nc(-c3ccc(N4[C@H]5CC[C@H]4CC(O)C5)cc3)c2c1 (some centres undefined) , thanks.
Resp: 160 nM

----------
assayDetails: Cytotoxicity against human OVCAR3 cells after 5 days by sulforhodamine B assay
Assay type: functional, OVCAR-3
testParameters: Homo sapiens, OVCAR-3, 120 h
readoutType: GI50 (nM)
Give bare numbers, in nM.

molecule	readoutType	unitDescriptor	observedResult
O=C(NCC1(N2CCOCC2)CCCCC1)c1ccc2[nH]nc(-c3ccc(N4CC5CCC(C4)O5)cc3)c2c1	GI50	nM	690
O=C(N[C@H](c1ccccn1)C1CCCC1)c1ccc2[nH]nc(-c3ccc(N4C5CCCC4COC5)cc3)c2c1	GI50	nM	200
O=C(N[C@@H](c1ccccn1)C1CC1)c1ccc2[nH]nc(-c3ccc(N4C5CCC4COC5)cc3)c2c1	GI50	nM	150

Now consider a different molecule.
Req: Need GI50 of CC(C)[C@H](NC(=O)c1ccc2[nH]nc(-c3ccc(N4[C@H]5CC[C@H]4CC(O)C5)cc3)c2c1)c1ccccc1Cl (some centres undefined) , thanks.
Resp: 7

----------
targetEntity: Dual specificity protein kinase TTK (Homo sapiens)
Sequence (P33981 whole entry): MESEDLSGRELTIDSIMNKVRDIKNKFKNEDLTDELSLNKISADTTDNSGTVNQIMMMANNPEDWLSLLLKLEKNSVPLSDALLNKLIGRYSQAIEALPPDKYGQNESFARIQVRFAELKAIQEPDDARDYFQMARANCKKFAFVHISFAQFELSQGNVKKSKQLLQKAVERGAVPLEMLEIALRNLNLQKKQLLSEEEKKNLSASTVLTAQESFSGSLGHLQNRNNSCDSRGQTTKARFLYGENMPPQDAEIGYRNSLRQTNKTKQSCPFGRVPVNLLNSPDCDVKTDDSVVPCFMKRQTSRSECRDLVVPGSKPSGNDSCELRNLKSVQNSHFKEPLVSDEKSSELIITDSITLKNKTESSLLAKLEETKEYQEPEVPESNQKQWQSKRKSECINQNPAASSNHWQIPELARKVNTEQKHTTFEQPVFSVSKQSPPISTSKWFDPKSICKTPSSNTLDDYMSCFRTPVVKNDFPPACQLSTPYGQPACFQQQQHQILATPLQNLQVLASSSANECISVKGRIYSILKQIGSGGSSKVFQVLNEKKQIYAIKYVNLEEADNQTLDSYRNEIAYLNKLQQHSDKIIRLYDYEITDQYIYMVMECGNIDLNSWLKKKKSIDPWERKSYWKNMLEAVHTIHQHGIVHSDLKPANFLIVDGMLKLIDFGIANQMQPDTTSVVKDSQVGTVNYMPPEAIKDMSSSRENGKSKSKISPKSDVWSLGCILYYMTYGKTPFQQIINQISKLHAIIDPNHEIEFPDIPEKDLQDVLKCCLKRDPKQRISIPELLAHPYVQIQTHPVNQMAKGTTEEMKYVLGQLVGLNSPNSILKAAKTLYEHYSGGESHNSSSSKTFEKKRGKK
assayDetails: Inhibition of amino terminal GST-fused full length human TTK using His6-SUMO-TTK-N as substrate preincubated for 15 mins prior to ATP addition by indirect ELISA detection system
Can you tell me pIC50 for the items I'm about to list?
One number for each entry, as −log10 of the molar value.

compound	pIC50
O=C(N[C@@H](c1ccccn1)C1CCCC1)c1ccc2[nH]nc(-c3ccc(N4[C@H]5CC[C@H]4CC(O)C5)cc3)c2c1 (stereo partly drawn)	8.39
O=CN1[C@@H]2CC[C@H]1C[C@@H](Oc1ccc(-c3n[nH]c4ccc(C(=O)NC(c5ccsc5)C5CCC5)cc34)cc1)C2 (mixture of isomers)	8.60

Now consider a different compound.
Req: Need pIC50 of O=C(N[C@H](c1ncccn1)C1CCCC1)c1ccc2[nH]nc(-c3ccc(N4[C@H]5CC[C@H]4CC(O)C5)cc3)c2c1 (stereo partly drawn) , thanks.
Resp: 8.96
